Values from PubChem BioAssay AID1445

For each of the compounds below, state its inhibition.
- ASSAYED SYSTEM: Aminopeptidase N (Plasmodium falciparum (isolate 3D7)) (UniProt O96935)
- Sequence (O96935 whole entry, looked up): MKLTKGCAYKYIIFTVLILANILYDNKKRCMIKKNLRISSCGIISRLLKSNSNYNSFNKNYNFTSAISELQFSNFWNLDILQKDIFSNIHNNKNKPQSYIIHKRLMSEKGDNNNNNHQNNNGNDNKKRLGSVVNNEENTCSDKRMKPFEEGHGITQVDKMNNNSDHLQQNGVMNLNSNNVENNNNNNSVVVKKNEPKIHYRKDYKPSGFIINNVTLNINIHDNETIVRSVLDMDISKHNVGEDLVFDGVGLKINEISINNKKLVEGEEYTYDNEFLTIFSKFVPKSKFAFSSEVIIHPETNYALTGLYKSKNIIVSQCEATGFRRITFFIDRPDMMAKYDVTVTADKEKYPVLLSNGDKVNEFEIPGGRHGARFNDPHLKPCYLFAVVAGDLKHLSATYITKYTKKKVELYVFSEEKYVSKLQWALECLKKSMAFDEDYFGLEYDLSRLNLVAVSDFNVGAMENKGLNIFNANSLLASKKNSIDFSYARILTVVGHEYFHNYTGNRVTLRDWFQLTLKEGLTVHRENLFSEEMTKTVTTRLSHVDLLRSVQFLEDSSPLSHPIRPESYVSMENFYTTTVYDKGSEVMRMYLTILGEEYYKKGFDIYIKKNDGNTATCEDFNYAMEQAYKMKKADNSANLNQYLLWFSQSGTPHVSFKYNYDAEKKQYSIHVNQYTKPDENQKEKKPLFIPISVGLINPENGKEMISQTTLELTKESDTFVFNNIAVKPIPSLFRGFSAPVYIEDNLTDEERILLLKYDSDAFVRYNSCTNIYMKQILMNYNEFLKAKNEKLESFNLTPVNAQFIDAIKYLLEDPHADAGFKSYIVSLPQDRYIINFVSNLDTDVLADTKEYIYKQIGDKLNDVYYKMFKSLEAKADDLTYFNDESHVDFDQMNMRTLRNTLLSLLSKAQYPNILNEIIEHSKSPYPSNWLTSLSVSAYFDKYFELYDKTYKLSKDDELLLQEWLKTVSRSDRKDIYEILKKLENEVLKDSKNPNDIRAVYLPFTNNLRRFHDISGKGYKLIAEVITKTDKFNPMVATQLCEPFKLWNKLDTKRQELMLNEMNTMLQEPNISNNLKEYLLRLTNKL
- TEST METHOD NOTES: malaria alanyl aminopeptidase activity blockers – biochemical, fluorogenic H-Leu-NHMec substrate, 1536-well (AID 1445);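 also: plate controls were DMSO full reaction for no effect and no enzyme background for full effect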
- MEASUREMENT SETUP: recombinant M1AAP, H-Leu-NHMec fluorogenic kinetic assay; at 30 µM, active compounds read high unless noted
Out of some 220,000 compounds screened, about 910 (0.41%) were called active. This excerpt belongs to a sample that is enriched for actives. Potency and affinity values are given separately.
Number in %, nothing else.

Suppose we examine the compound Cc1ccc(N2C(=S)NC3c4ccccc4OC2(C)C3C(=O)N(C)C)cc1 (stereo unspecified) ; what inhibition value has been reported?
2.84

Suppose we examine the compound `Cc1cccc(N2C(=O)CCC2=O)n1` ; what inhibition value has been reported?
-1.56

Suppose we examine the compound `O=C1OC(c2cccs2)=N/C1=C\c1ccc(-c2ccccc2Cl)o1` ; what inhibition value has been reported?
15.5

Suppose we examine the compound `Cc1cccc(NC(=O)CCCN2C(=O)c3ccccc3C2=O)n1` ; what inhibition value has been reported?
-6.68

Suppose we examine the compound `COc1ccc(CNC(=O)c2csc(Cc3ccccc3)n2)cc1` ; what inhibition value has been reported?
2.78

Suppose we examine the compound `Cc1ccc(N2C(=O)c3ccccc3C2=O)cc1Cl` ; what inhibition value has been reported?
-2.81

Suppose we examine the compound Cn1cnnc1SC1CCCCC1NS(=O)(=O)c1ccccc1 (stereo unspecified) ; what inhibition value has been reported?
-1.9

Suppose we examine the compound COC(=O)CNC(=O)C(C)NC(=O)OCc1ccccc1 (stereo unspecified) ; what inhibition value has been reported?
3.83

Suppose we examine the compound `CCOC(=O)CCCCC(=O)c1[nH]c(=O)[nH]c1CSc1nc(C)cc(=O)[nH]1` ; what inhibition value has been reported?
7.83

Suppose we examine the compound `Cc1ccc(NC(=O)CN2C(=O)c3ccccc3C2=O)nc1` ; what inhibition value has been reported?
1.04

Suppose we examine the compound `O=C1OC(c2cccs2)=N/C1=C/c1ccc(-c2cccc(C(=O)O)c2)o1` ; what inhibition value has been reported?
10.5

---

- ASSAYED SYSTEM: Aminopeptidase N (Plasmodium falciparum (isolate 3D7)) (UniProt O96935)
- TEST METHOD NOTES: malaria alanyl aminopeptidase activity blockers – biochemical, fluorogenic H-Leu-NHMec substrate, 1536-well (AID 1445);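 also: plate controls were DMSO full reaction for no effect and no enzyme background for full effect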
- MEASUREMENT SETUP: recombinant M1AAP, H-Leu-NHMec fluorogenic kinetic assay; at 30 µM, active compounds read high unless noted
Hit rate of the full screen: of about 220,000 compounds, about 910 (0.41%) were called active. The list comes from a sample in which actives are over-represented; it also holds close analogues and randomly drawn compounds. Potency and affinity values are given separately.
PARAMETER MEASURED: inhibition (%)
Number in %, nothing else.

Suppose we examine the molecule `CN(C)c1ccc(NC(=O)Cn2c(=O)n(Cc3ccccc3)c(=O)c3ccccc32)cc1` ; what inhibition value has been reported?
10.9

Suppose we examine the molecule `O=C(CCNS(=O)(=O)c1cccc2nsnc12)NCc1ccco1` ; what inhibition value has been reported?
3.34

Suppose we examine the molecule `CC(C)CN(Cc1c(O)ccc2c3c(c(=O)oc12)CCC3)CC(C)C` ; what inhibition value has been reported?
34.7

Suppose we examine the molecule `CC(C)(C)NC(=O)COc1ccccc1C#N` ; what inhibition value has been reported?
-0.28

Suppose we examine the molecule `CC1CCN(Cc2c(O)ccc3c(=O)c(-c4nc5ccccc5s4)c(N)oc23)CC1` ; what inhibition value has been reported?
2.55

Suppose we examine the molecule `C=C(C)COc1ccc2c(C)c(CC(=O)OC)c(=O)oc2c1C` ; what inhibition value has been reported?
13.3

Suppose we examine the molecule CC1CN(Cc2c(O)ccc3c2oc(=O)c2ccccc23)CC(C)O1 (stereo unspecified) ; what inhibition value has been reported?
4.75

Suppose we examine the molecule `N#Cc1c(-c2ccccc2)nc(SCC(=O)Nc2nnc(C(F)(F)F)s2)[nH]c1=O` ; what inhibition value has been reported?
17.8

Suppose we examine the molecule `COC(=O)Cc1c(C)c2ccc(OCC(C)=O)c(C)c2oc1=O` ; what inhibition value has been reported?
14.3

Suppose we examine the molecule `CCN(CC)CC(C)(C)NS(=O)(=O)c1ccc(Cl)cc1` ; what inhibition value has been reported?
-1.17

Suppose we examine the molecule `Cc1cc(NC(=O)Cn2c(=O)n(Cc3ccccc3)c(=O)c3ccccc32)no1` ; what inhibition value has been reported?
23.7
